# Assay: HT-logP o/w, high throughput assay based on artificial liquid membrane permeability
# Assay type: physicochemical
# Measurement setup: octanol/water, read-out: HT LogP ohw
Reported property: logP
Answers are plain numbers.

CCCCNC(=O)C[C@H](CCCCN)NC(=O)[C@@H](Cc1c[nH]c2ccccc12)NC(=O)C[C@H](Cc1ccccc1)NC(C)=O
3.1
CCCCNC(=O)C[C@H](CCCCN)NC(=O)[C@@H](Cc1c[nH]c2ccccc12)NC(=O)C[C@H](Cc1ccccc1)NC(=O)CCC
3.5
NCCCC[C@@H](CC(=O)NC1CCCC1)NC(=O)[C@@H](Cc1c[nH]c2ccccc12)NC(=O)C[C@@H](N)Cc1ccccc1
2.9
CCCCCN(C)C(=O)C[C@H](CCCCN)NC(=O)[C@@H](Cc1c[nH]c2ccccc12)NC(=O)C[C@H](Cc1ccccc1)NC(=O)CC
3.4
CC(=O)N[C@H](CC(=O)N(C)[C@H](Cc1c[nH]c2ccccc12)C(=O)N[C@@H](CCCCN)CC(=O)N[C@@H]1CC(=O)O[C@@H]1C)Cc1ccccc1
3.3

For each listed entry, give its logP.
1. NCCCC[C@@H](CC(=O)NC1CCCC1)NC(=O)[C@@H](Cc1c[nH]c2ccccc12)NC(=O)C[C@H](Cc1ccccc1)NC(=O)CCc1ccccc1
2. CC(=O)N(C)[C@H](CC(=O)N[C@H](Cc1c[nH]c2ccccc12)C(=O)N[C@@H](CCCCN)CC(=O)N[C@@H]1CC(=O)O[C@@H]1C)Cc1ccccc1
3. C[C@H]1OC(=O)C[C@H]1NC(=O)C[C@H](CCCCN)NC(=O)[C@@H](Cc1c[nH]c2ccccc12)NC(=O)C[C@H](Cc1ccccc1)NC(=O)CCc1ccccc1

**A:**
1. 4
2. 3.4
3. 2.7

For each listed entry, give its logP.
1. CCN(CC)C(=O)C[C@@H](NC(=O)C[C@H](CCCCN)NC(=O)[C@@H](Cc1c[nH]c2ccccc12)NC(=O)C[C@H](Cc1ccccc1)NC(=O)CCc1ccccc1)C(C)C
2. C[C@H]1OC(=O)C[C@H]1NC(=O)C[C@H](CCCCN)NC(=O)[C@@H](Cc1c[nH]c2ccccc12)NC(=O)C[C@H](Cc1ccccc1)NC(=O)C1CCCCC1
3. CCCCCN(C)C(=O)C[C@H](CCCCN)NC(=O)[C@@H](Cc1c[nH]c2ccccc12)NC(=O)C[C@H](Cc1ccccc1)NC(C)=O

**A:**
[4.1, 3.9, 3]
